# assay-name: small-molecule microarray binders of probe aEGFR, primary screen, biochemical, biotinylated probe, 635/667 nm fluorescence (AID 1097);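 note: probe is a biotinylated anti-EGFR antibody binding compounds printed on slides; score combines fluorescence near 667 nm and signal to noise of each spot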
# study-conditions: higher = more signal
Answer criterion not met if composite z-score is under 0.01, and criterion met if it is 0.01 or more.

molecule=Cc1ccc(S[C@]2(C(=O)NC3CC3)CC(=O)N(C3Cc4ccccc4C3)[C@@H]2c2ccc(CO)cc2)cc1 label="criterion not met"
molecule="CCC(CC)C(O)C1C=CC2C(=O)N(C)C(=O)C2N1Nc1ccccc1 (configuration not stated)" label="criterion not met"
molecule=O=C1O[C@H](c2ccccc2)[C@H](c2ccccc2)N2[C@H]1[C@@H](C(=O)N1CCN(c3ncccn3)CC1)[C@]1(C(=O)Nc3ccc(C#CC4=CCCCC4)cc31)[C@H]2c1ccc(O)cc1 label="criterion met"

Problem: Would you say CC(C)N1C(=O)[C@@]2(Cc3ccccc31)c1ccccc1C(=O)N(C1CCCCC1)[C@H]2c1ccc(CO)cc1 shows composite z-score at minimum 0.01?
Solution: criterion met

Problem: Would you say COc1ccc(C(=O)Nc2ccc(CN3C(=O)[C@@]4(O[C@@H](CCn5cc([C@H](O)c6ccccc6)nn5)[C@H]([Si](C)(C)c5ccc(OC)cc5)[C@H]4C)c4ccccc43)cc2)cc1 shows composite z-score at minimum 0.01?
Solution: criterion not met

Problem: Would you say C=C(COC)/C(=C/C[C@@H](OC(C)=O)c1ccc(CO)o1)c1cnc2ccccc2c1 shows composite z-score at minimum 0.01?
Solution: criterion met

Problem: Would you say COc1ccc(C(=O)Nc2ccc(CN3C(=O)[C@@]4(O[C@@H](CC(=O)N5CCC[C@H]5CO)[C@H]([Si](C)(C)c5ccc(OC)cc5)[C@H]4C)c4ccccc43)cc2)cc1 shows composite z-score at minimum 0.01?
Solution: criterion met

All figures here come from PubChem BioAssay.
